- test-target: T1, PDZD7_3, Q9H5P4
- T1 sequence (Q9H5P4 857-944, limits assumed, looked up): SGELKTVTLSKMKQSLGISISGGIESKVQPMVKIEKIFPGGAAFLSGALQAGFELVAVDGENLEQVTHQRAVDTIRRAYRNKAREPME
- assay-remarks: holdup assay
- Parameters: key: below the threshold = too weak to quantify, mostly under pKd 3.1 to 4
- condition-set: plain residues with an end cap or a label only (N-terminal biotin on a linker: ado-ado)
quantity: pKd
Output: the number by itself.

[Q] Supply pKd value. Item: PSHPRLQTHV [KIRREL2, Q6UWL6]
[A] 4.61

Data provenance is paper PMC9482650.
